- tgt: pooled human IgG (human)
- protocol.text: cell-based or functional assay; further: test concentration or dose not given here
Exercise: for every item that follows, state its recorded Enzyme Activity Endpoint Assay (purified): IgG.
Express it in ng/µL; write the number only.

Requested field: Enzyme Activity Endpoint Assay (purified): IgG. Item: PRT-216 (enzyme) MEVVEVWPYGQNPNGKTEILSQTEDSESLQRLRDIEDFQAEKKKENVVYTKWLDGVDVDDHDFRKIVDGNTEYYATPLLNGRGWYDINKDFNRDSDKCAAAVAANMFHYWLDQNRDNIDRFLRQSPEKHGIIELPDGQLKLSDFLNTYESDDGYRDKSKLFDFISNNFNGPVWTDKLLDNYINGYGYNYKYGRTIEDPTKNNSKINFFKKVFNGKILTDNHSIRNYNTFSDLLSEALYTGKAIGLSYGPAGLRHSLGHIISVWGADLDADGNVVAIYVTDSDDKKLTIGDERVGLKRYKISYDDENRARLTAYEENDNTGGQIRGLETLDTGKQAWADYFDKTEQTGTDQAEQLEHHHHHH
1660

Another: PRT-214 (enzyme) MEVVEVWPYGQNPNGKTEILSQTEDSESLQRLRDIEDFQAEKKKEGVVYTKWLDGVDVDDHDFRKITDGDIEYYATPLLNGRGFYDINKDFNRDSDKCAAAVAANMFHYWLDRNRDNVDRFLKQNPEKHGIIELPDGQLKLSDFLNTYESDYGYRDKSKLFDFISNNFNGPVWTDKLLDNYINGYAYNYKYGRTIEDPTKNTSKINFFKEVFDEKLLTNNHSIRNYNEFSELLREALYTGKAIGLSYGPAGLRHSLGHIISVWGADLDEDGNVVAIYVTDSDDKKLTIGDERVGLKRYKVSSDDENRARLTAYEEKDNTGGEIRGLYTLDTGKQAWADYFDKTEQTGTDQAEQLEHHHHHH
1650

Field entry: PRT-217 (enzyme) MEVVEVWPYGQNPNGKTEILSQTEDSESLQRLRDIEDFQAEKKKQNVVYTKWLDGVTVDDSDFRKIKDGNTEYYATPLLNGRGFYDINKDFNRDSDKCAAAVAANMFHYWLDRNRDNVDRFLKQNPEKHGIIELPDGQLKLSDFLNTYESDNNYRDKSKLFDFISKNFNGPVWTNKLLDNYINGYGYNYKYGRTIEDPTKNTSKINFFKKVFNEKILTNVHQIFNYNEFSTLLSEALYTGKAIGLSYGPGGLRHSLGHIISVWGADLDADGNVVAIYVTDSDDKKLTIGDERVGLKRYKISTDDEGRARLTAYTETDNTGGQVRGIYTLDTGKQAWADYFDKTEQTGTDQAEQLEHHHHHH
1580

And for PRT-209 (enzyme) MEVVEVWPYGQNPNGKTEILSQTEDSESLQRLRDIEDFQAEKKKQGVVYTKWLDGVDVDDHDFRKIVDGNIAYYATPLLNGKGFYDINKDFNRDSDKCAAAVAANMFHYWLDQNRDNVDRFLRQNPEKHGIIELPDGQLKLSDFLNTYESDNGYRDKSKLFDFISNNFNGPVWTDKLLDNYINGYAYNYKYGRTIEDPTKNTSKINFFKDVFNEKILTNIHSIRNYNTFSNLLSEALYTGKAIGLSYGPAGLRHSLGHIISVWGADLDEDGNVVAIYVTDSDDKKLTIGDERVGLKRYKISTDDEGRARLTAYEENDNTGGEIRGLYTLDTGKQAWADYFDKTEQTGTDQAEQLEHHHHHH ?
1670

Now this one: PRT-206 (enzyme) MEVVEVWPYGQNPNGKTEILSQTEDSESLQRLRDIEDFQAEKKKENVVYTKWLDGVTVKDHDFRKIVDGNIAYYATPLLNGRGFYDINKDFNRDSDKCAAAVAANMFHYWLDINRDNVDRFLRQNPEKHGIIELPDGQLKLSDFLNTYESDDGYRDKSKLFDFISNNFNGPVWTDKLLDNYINGYGYNYKYGRTIEDPTKNTSKINFFKEVFNEKILTDNHSIRDQNEFSDLLSEALYTGKAIGLSYGPAGLRHSLGHIISVWGADLDADGNVVAIYVTDSDDKKLTIGDERVGLKRYKISYDDEGRARLTAYEEKDNTGGQIRGLYTLDTGKQAWADYFDKTEQTGTDQAEQLEHHHHHH
2130

Also PRT-205 (enzyme) MEVVEVWPYGQNPNGKTEILSQTEDSESLQRLRDIEDFQAEKKKEGVVYTKWLDGVDVDDHDFRKIVDGNIAYYATPLLNGRGFYDINKDFNRDSDKCAAAVAANMFHYWLDRNRDNVDRFLKQNPEKHGIIELPDGQLKLSDFLNTYESDNGYRDKSKLFDFISNNFNGPVWTDKLLDNYINGYAYNYKYGRTIEDPTKNTSKINFFKEVFNEKILTNNHSIRNYNTFSDLLSEALYTGKAIGLSYGPAGLRHSLGHIISVWGADLDADGNVVAIYVTDSDDKKLTIGDERVGLKRYKVSSDDENRLRLTAYEETHNTGGQIRGIYTLDTGKQAWADYFDKTEQTGTDQAEQLEHHHHHH , if possible.
1090

Same for PRT-219 (enzyme) MEVVEVWPYGQNPNGKTEILSQTEDSESLQRLRDIEDFQAEKKKQNVVYTKWLDGVTVDDSDFRKIKDGNTEYYATPLLNGRGFYDINKDFNRDSDKCAAAVAANMFHYWLDRNRDNVDRFLKQNPEKHGIIELPDGQLKLSDFLNTYESDNNYRDKSKLFDFISKNFNGPVWTNKLLDNYINGYGYNYKYGRTIEDPTKNTSKINFFKKVFNEKILTNVHQIFNYNEFSTLLSEALYTGKAIGLSYGPGGLRHSLGHIISVWGADLDADGNVVAIYVTDSDDKKLTIGDERVGLKRYKISTDDEGRARLTAYTETDNTGGQVRGIWTLDTGKQAWADYFDKTEQTGTDQAEQLEHHHHHH
886
